Measured values drawn from the supplement of paper PMC10307832 for this set.

- Test system: HCC-44
- procedure summary: relative viability (nuclei count vs DMSO), 5 days (fraction); higher = more cells survive
- study conditions: first compound 0.253 µM
measured property: relative viability
One number for each entry.

compound | relative viability
O=c1[nH]c2ccccc2n1C1CCN(CCCC(c2ccc(F)cc2)c2ccc(F)cc2)CC1 [Pimozide] + Cc1nc(NC(=O)N2CCC[C@H]2C(N)=O)sc1-c1ccnc(C(C)(C)C(F)(F)F)c1 [Alpelisib] (partner 2 µM) | 0.751

Give me relative viability for each of these compounds, listed below.
1. Cc1cnc(-c2cnc(NCCNc3ccc(C#N)cn3)nc2-c2ccc(Cl)cc2Cl)[nH]1 + C[C@@H](Oc1cc(-c2cnn(C3CCNCC3)c2)cnc1N)c1c(Cl)ccc(F)c1Cl [Crizotinib] (partner 1 µM)
2. Cc1cnc(-c2cnc(NCCNc3ccc(C#N)cn3)nc2-c2ccc(Cl)cc2Cl)[nH]1 + NC(=O)Nc1cc(-c2cccc(F)c2)sc1C(=O)N[C@H]1CCCNC1 [AZD7762] (partner 0.2 µM)
3. O=c1[nH]c2ccccc2n1C1CCN(CCCC(c2ccc(F)cc2)c2ccc(F)cc2)CC1 [Pimozide] + CS(=O)(=O)CCNCc1ccc(-c2ccc3ncnc(Nc4ccc(OCc5cccc(F)c5)c(Cl)c4)c3c2)o1 [Lapatinib] (partner 2 µM)

[0.886, 1.02, 1.08]

Please supply the value of reported relative viability for the item Cc1cnc(-c2cnc(NCCNc3ccc(C#N)cn3)nc2-c2ccc(Cl)cc2Cl)[nH]1 + CS(=O)(=O)N1CCN(Cc2cc3nc(-c4cccc5[nH]ncc45)nc(N4CCOCC4)c3s2)CC1 [Pictilisib] (partner 1 µM)
0.578

---

- Test system: NCI-H1355
- procedure summary: relative viability (nuclei count vs DMSO), 5 days (fraction); higher = more cells survive
- study conditions: first compound 0.8 µM
Decision: relative viability beneath 0.4 gives class 1; relative viability meeting or exceeding 0.4 gives class 0.

molecule | class
O=c1[nH]c2ccccc2n1C1CCN(CCCC(c2ccc(F)cc2)c2ccc(F)cc2)CC1 [Pimozide] + Cc1cc(Nc2cc(N3CCN(C)CC3)nc(Sc3ccc(NC(=O)C4CC4)cc3)n2)n[nH]1 [Tozasertib] (partner 0.1 µM) | class 0
Cc1cnc(-c2cnc(NCCNc3ccc(C#N)cn3)nc2-c2ccc(Cl)cc2Cl)[nH]1 + C[C@]1(O)C[C@@H](c2nc(-c3ccc4ccc(-c5ccccc5)nc4c3)c3c(N)nccn32)C1 [Linsitinib] (partner 1 µM) | class 0
Cc1cnc(-c2cnc(NCCNc3ccc(C#N)cn3)nc2-c2ccc(Cl)cc2Cl)[nH]1 + CCNC(=O)c1noc(-c2cc(C(C)C)c(O)cc2O)c1-c1ccc(CN2CCOCC2)cc1 [Luminespib] (partner 0.01 µM) | class 0

Report whether reported relative viability is lower than 0.4 (strictly) for O=c1[nH]c2ccccc2n1C1CCN(CCCC(c2ccc(F)cc2)c2ccc(F)cc2)CC1 [Pimozide] + CC(=O)c1c(C)c2cnc(Nc3ccc(N4CCNCC4)cn3)nc2n(C2CCCC2)c1=O [Palbociclib] (partner 0.5 µM)
class 1

Is it true that relative viability reported for O=c1[nH]c2ccccc2n1C1CCN(CCCC(c2ccc(F)cc2)c2ccc(F)cc2)CC1 [Pimozide] + Nc1ncn([C@H]2C[C@H](O)[C@@H](CO)O2)c(=O)n1 [Decitabine] (partner 2 µM) is less than 0.4?
class 1

Please state whether relative viability is below 0.4 for Cc1cnc(-c2cnc(NCCNc3ccc(C#N)cn3)nc2-c2ccc(Cl)cc2Cl)[nH]1 + CS(=O)(=O)CCNCc1ccc(-c2ccc3ncnc(Nc4ccc(OCc5cccc(F)c5)c(Cl)c4)c3c2)o1 [Lapatinib] (partner 2 µM)
class 0

---

- System: HARA
- procedure summary: relative viability (nuclei count vs DMSO), 5 days (fraction); higher = more cells survive
- study conditions: first compound 1.265 µM
measured property: relative viability
Numbers only.

Worked cases, relative viability given:
compound | relative viability
Cc1sc2c(c1C)C(c1ccc(Cl)cc1)=N[C@@H](CC(=O)OC(C)(C)C)c1nnc(C)n1-2 [JQ1] + C[C@@H](Oc1cc(-c2cnn(C3CCNCC3)c2)cnc1N)c1c(Cl)ccc(F)c1Cl [Crizotinib] (partner 1 µM) | 0.366
Cc1sc2c(c1C)C(c1ccc(Cl)cc1)=N[C@@H](CC(=O)OC(C)(C)C)c1nnc(C)n1-2 [JQ1] + CS(=O)(=O)CCNCc1ccc(-c2ccc3ncnc(Nc4ccc(OCc5cccc(F)c5)c(Cl)c4)c3c2)o1 [Lapatinib] (partner 2 µM) | 0.317
Cc1sc2c(c1C)C(c1ccc(Cl)cc1)=N[C@@H](CC(=O)OC(C)(C)C)c1nnc(C)n1-2 [JQ1] + COc1cc2c(Oc3ccc(NC(=O)C4(C(=O)Nc5ccc(F)cc5)CC4)cc3F)ccnc2cc1OCCCN1CCOCC1 [Foretinib] (partner 0.25 µM) | 0.343

Now for the compound whose relative viability we want.
Read off the recorded relative viability for Cc1sc2c(c1C)C(c1ccc(Cl)cc1)=N[C@@H](CC(=O)OC(C)(C)C)c1nnc(C)n1-2 [JQ1] + CS(=O)(=O)N1CCN(Cc2cc3nc(-c4cccc5[nH]ncc45)nc(N4CCOCC4)c3s2)CC1 [Pictilisib] (partner 1 µM)
0.177

---

Can you tell me relative viability for the items I'm about to list?
- Test system: NCI-H2405
- procedure summary: relative viability (nuclei count vs DMSO), 5 days (fraction); higher = more cells survive
- study conditions: first compound 8 µM
One number for each entry.

Check out these entries, answers already filled in.
compound | target or system | relative viability
O=c1[nH]c2ccccc2n1C1CCN(CCCC(c2ccc(F)cc2)c2ccc(F)cc2)CC1 [Pimozide] + Nc1nc2[nH]cc(CCc3ccc(C(=O)N[C@@H](CCC(=O)O)C(=O)O)cc3)c2c(=O)[nH]1 [Pemetrexed] (partner 0.2 µM) | NCI-H2405 | 0.88
O=c1[nH]c2ccccc2n1C1CCN(CCCC(c2ccc(F)cc2)c2ccc(F)cc2)CC1 [Pimozide] + CS(=O)(=O)CCNCc1ccc(-c2ccc3ncnc(Nc4ccc(OCc5cccc(F)c5)c(Cl)c4)c3c2)o1 [Lapatinib] (partner 2 µM) | NCI-H2405 | 0.79
O=c1[nH]c2ccccc2n1C1CCN(CCCC(c2ccc(F)cc2)c2ccc(F)cc2)CC1 [Pimozide] + COc1cccc2cc(-c3nc([C@H]4CC[C@H](C(=O)O)CC4)n4ncnc(N)c34)[nH]c12 [OSI-027] (partner 0.5 µM) | NCI-H2405 | 0.707
O=c1[nH]c2ccccc2n1C1CCN(CCCC(c2ccc(F)cc2)c2ccc(F)cc2)CC1 [Pimozide] + CS(=O)(=O)N1CCN(Cc2cc3nc(-c4cccc5[nH]ncc45)nc(N4CCOCC4)c3s2)CC1 [Pictilisib] (partner 1 µM) | NCI-H2405 | 0.349
O=c1[nH]c2ccccc2n1C1CCN(CCCC(c2ccc(F)cc2)c2ccc(F)cc2)CC1 [Pimozide] + NC(=O)Nc1cc(-c2cccc(F)c2)sc1C(=O)N[C@H]1CCCNC1 [AZD7762] (partner 0.2 µM) | NCI-H2405 | 0.426
O=c1[nH]c2ccccc2n1C1CCN(CCCC(c2ccc(F)cc2)c2ccc(F)cc2)CC1 [Pimozide] + CC(=O)Nc1cccc(-n2c(=O)n(C3CC3)c(=O)c3c(Nc4ccc(I)cc4F)n(C)c(=O)c(C)c32)c1 [Trametinib] (partner 0.02 µM) | NCI-H2405 | 0.36
O=c1[nH]c2ccccc2n1C1CCN(CCCC(c2ccc(F)cc2)c2ccc(F)cc2)CC1 [Pimozide] + CC(=O)c1c(C)c2cnc(Nc3ccc(N4CCNCC4)cn3)nc2n(C2CCCC2)c1=O [Palbociclib] (partner 0.5 µM) | NCI-H2405 | 0.33
O=c1[nH]c2ccccc2n1C1CCN(CCCC(c2ccc(F)cc2)c2ccc(F)cc2)CC1 [Pimozide] + CC1(C)CCC(c2ccc(Cl)cc2)=C(CN2CCN(c3ccc(C(=O)NS(=O)(=O)c4ccc(N[C@H](CCN5CCOCC5)CSc5ccccc5)c(S(=O)(=O)C(F)(F)F)c4)cc3)CC2)C1 [Navitoclax] (partner 0.5 µM) | NCI-H2405 | 0.637

Shift focus to the following entry.
Tell us which relative viability value is on record for O=c1[nH]c2ccccc2n1C1CCN(CCCC(c2ccc(F)cc2)c2ccc(F)cc2)CC1 [Pimozide] + Nc1ncn([C@H]2C[C@H](O)[C@@H](CO)O2)c(=O)n1 [Decitabine] (partner 2 µM)
0.669

---

- Tested on: NCI-H3122
- procedure summary: relative viability (nuclei count vs DMSO), 5 days (fraction); higher = more cells survive
- study conditions: first compound 2.53 µM
Please go through the items and note down their relative viability.
One number for each entry.

Answered examples (2):
molecule | readout number
Cc1cnc(-c2cnc(NCCNc3ccc(C#N)cn3)nc2-c2ccc(Cl)cc2Cl)[nH]1 + Cc1nc(Nc2ncc(C(=O)Nc3c(C)cccc3Cl)s2)cc(N2CCN(CCO)CC2)n1 [Dasatinib] (partner 0.075 µM) | 0.528
Cc1cnc(-c2cnc(NCCNc3ccc(C#N)cn3)nc2-c2ccc(Cl)cc2Cl)[nH]1 + Nc1nc2[nH]cc(CCc3ccc(C(=O)N[C@@H](CCC(=O)O)C(=O)O)cc3)c2c(=O)[nH]1 [Pemetrexed] (partner 0.2 µM) | 0.174

For each entry beneath this line, provide reported relative viability.
1. Cc1cnc(-c2cnc(NCCNc3ccc(C#N)cn3)nc2-c2ccc(Cl)cc2Cl)[nH]1 + Cc1nc(NC(=O)N2CCC[C@H]2C(N)=O)sc1-c1ccnc(C(C)(C)C(F)(F)F)c1 [Alpelisib] (partner 2 µM)
2. O=c1[nH]c2ccccc2n1C1CCN(CCCC(c2ccc(F)cc2)c2ccc(F)cc2)CC1 [Pimozide] + Nc1nc2[nH]cc(CCc3ccc(C(=O)N[C@@H](CCC(=O)O)C(=O)O)cc3)c2c(=O)[nH]1 [Pemetrexed] (partner 0.2 µM)

1. 0.762
2. 0.195
